Where do these numbers come from? They come from PubChem BioAssay (NCI).

Please go through the items and note down their TGI.
# Tested on: SF-295 CNS
# measurementDescription: NCI tumour cell line growth inhibition, 48 h
Supply the numeric figure in µM, leaving out any unit text.

**Q:** GET /values?readout=TGI&item= COc1ccc(-n2nc(C(=O)NCC(=O)Nc3nc4cc(OC)ccc4s3)c3ccccc3c2=O)cc1
**A:** 1.62

**Q:** GET /values?readout=TGI&item= Cc1nc2sc(C(=O)Nc3cccc(Cl)c3C)c(N)c2cc1C(O)c1ccccc1 (centres undefined)
**A:** 5.08

**Q:** GET /values?readout=TGI&item= CC1(C)CC(C(=O)OCCCCCCCCCCC[P+](c2ccccc2)(c2ccccc2)c2ccccc2)C(C)(C)N1O (centres undefined)
**A:** 0.538

**Q:** GET /values?readout=TGI&item= CCCCc1n(Cc2ccc3ccccc3n2)cc[n+]1Cc1ccc2ccccc2c1
**A:** 4.4

====

# Tested on: DMS 273 small cell lung
# measurementDescription: NCI tumour cell line growth inhibition, 48 h
Please go through the items and note down their TGI.

**Q:** GET /values?readout=TGI&item= CC1=C(C(=O)NCc2ccccc2)C(c2ccc(N(C)C)cc2)C(C(=O)NCc2ccccc2)=C(C)N1
**A:** > 100 µM

**Q:** GET /values?readout=TGI&item= O=C(/C=C/c1ccco1)N1CCN(Cc2ccccc2)CC1
**A:** > 100 µM

**Q:** GET /values?readout=TGI&item= CNC(=O)NCCCCC(NC(=O)OCc1ccccc1)C(=O)OCc1ccccc1 (centres undefined)
**A:** > 100 µM

**Q:** GET /values?readout=TGI&item= C[C@@]12[Se]c3ccccc3[C@]1(C)[Se]c1ccccc12
**A:** > 100 µM

**Q:** GET /values?readout=TGI&item= C=CCC(O)c1cc(OC)ccc1OC (centres undefined)
**A:** > 100 µM

**Q:** GET /values?readout=TGI&item= O=C(CC(=O)c1cccc2ccccc12)C(=O)Nc1nccs1
**A:** > 100 µM

**Q:** GET /values?readout=TGI&item= COc1ccc(/C=N/NC(=O)CSc2nc(-c3ccccc3)c(-c3ccccc3)[nH]2)cc1OC
**A:** 40.7 µM

**Q:** GET /values?readout=TGI&item= COC(=O)c1ccc(N/C=C(/C#N)c2ccsc2)cc1
**A:** 37.4 µM

**Q:** GET /values?readout=TGI&item= COC(=O)CCC(=O)Nc1cc(C)ccc1C
**A:** > 100 µM

**Q:** GET /values?readout=TGI&item= C[C@@H]1C[C@@H]2C(=O)N(c3ccccc3)C(=O)[C@@H]2c2[nH]c3ccc(Br)cc3c21
**A:** > 100 µM

**Q:** GET /values?readout=TGI&item= CN(C)C(=S)/N=C(\N)N(C)C
**A:** > 100 µM

**Q:** GET /values?readout=TGI&item= CCOc1ccc2c(c1)[n+]([O-])c(-c1ccc([N+](=O)[O-])cc1)c(N)[n+]2[O-]
**A:** > 100 µM

**Q:** GET /values?readout=TGI&item= CC(C(=O)c1ccc(O)cc1)C1(O)C(=O)Nc2c(Cl)cc(Cl)cc21 (centres undefined)
**A:** > 100 µM

**Q:** GET /values?readout=TGI&item= CC[C@H](C)C(=O)O[C@H]1C[C@@H](C)C=C2C=C[C@H](C)[C@H](CC[C@@H]3C[C@@H](O)CC(=O)O3)[C@H]21
**A:** > 30 µM

**Q:** GET /values?readout=TGI&item= CC/C(=N/O)C(C)C(=O)CCC(=O)Nc1ccc(Cl)cc1 (centres undefined)
**A:** > 100 µM

**Q:** GET /values?readout=TGI&item= CC(C)C1COC(C(C)(C)C2=N[C@@H](C(C)C)CO2)=N1 (some centres undefined)
**A:** > 100 µM

**Q:** GET /values?readout=TGI&item= CC(=O)Nc1ccc(S(=O)(=O)N/N=C(\C)CN2C(=O)c3ccccc3C2=O)cc1
**A:** > 100 µM

**Q:** GET /values?readout=TGI&item= CC(C)(C)CC(C)(C)c1cc2c(O)c(c1)Cc1cc(C(C)(C)CC(C)(C)C)cc(c1O)Cc1cc(C(C)(C)CC(C)(C)C)cc(c1O)Cc1cc(C(C)(C)CC(C)(C)C)cc(c1O)Cc1cc(C(C)(C)CC(C)(C)C)cc(c1O)Cc1cc(C(C)(C)CC(C)(C)C)cc(c1O)Cc1cc(C(C)(C)CC(C)(C)C)cc(c1O)Cc1cc(C(C)(C)CC(C)(C)C)cc(c1O)C2
**A:** > 100 µM

**Q:** GET /values?readout=TGI&item= N#CC(C(=S)Nc1ccccc1)=C1Nc2ccccc2N1
**A:** > 10 µM
